# measuredTarget: PD-L1 (Homo sapiens, UniProt Q9NZQ7)
# Construct: hPDL1(19-239)-TVMV-His; made in house; host or cells: HEK293T
# Sequence (Q9NZQ7 with tags, fused parts or gaps): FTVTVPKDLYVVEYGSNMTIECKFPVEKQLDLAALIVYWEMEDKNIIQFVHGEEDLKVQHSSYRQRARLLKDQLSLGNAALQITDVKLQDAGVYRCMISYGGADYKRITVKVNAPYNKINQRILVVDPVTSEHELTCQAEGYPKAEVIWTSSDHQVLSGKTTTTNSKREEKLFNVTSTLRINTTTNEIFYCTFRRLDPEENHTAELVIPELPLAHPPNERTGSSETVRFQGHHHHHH
# assayMethodText: PD-1/PD-L1 Homogenous Time-Resolved Fluorescence (HTRF) binding assay (PD-1-Ig/PD-L1-His)
# recordedConditions: inhibition of PD-1-Ig binding to PD-L1-TVMV-His; value given as range class; read-out: HTRF IC50
valueType: IC50

[
  {
    "molecule": "CCCC[C@H]1C(=O)N(C)[C@@H](CCCC)C(=O)N[C@@H](CCC(=O)O)C(=O)N[C@H](C(=O)NCC(=O)N[C@@H](Cc2cn(CCOCCOCCOCCOC)nn2)C(=O)NCC(N)=O)CSCC(=O)N[C@@H](Cc2ccc(O)cc2)C(=O)N(C)[C@@H](C)C(=O)N[C@@H](CC(=O)O)C(=O)N2CCC[C@H]2C(=O)N[C@@H](Cc2c[nH]cn2)C(=O)N[C@@H](CCCCN)C(=O)N2C[C@H](O)C[C@H]2C(=O)N[C@@H](Cc2c[nH]c3ccccc23)C(=O)N[C@@H](CCCCN)C(=O)N[C@@H](Cc2c[nH]c3ccccc23)C(=O)N1C [Example 14063]",
    "measured": "10 to 99 nM"
  },
  {
    "molecule": "CCCCCCCCCCCCCC(=O)NCc1cn(CC[C@H](NC(=O)CNC(=O)[C@@H]2CSCC(=O)N[C@@H](Cc3ccc(O)cc3)C(=O)N(C)[C@@H](C)C(=O)N[C@@H](CC(N)=O)C(=O)N3CCC[C@H]3C(=O)N[C@@H](CN)C(=O)N[C@@H](CC(C)C)C(=O)N3C[C@H](O)C[C@H]3C(=O)N[C@@H](Cc3c[nH]c4ccccc34)C(=O)N[C@@H](CO)C(=O)N[C@@H](Cc3csc4ccccc34)C(=O)N(C)[C@@H](CCCC)C(=O)N(C)[C@@H](CCCC)C(=O)N[C@@H](CCCNC(=N)N)C(=O)N2)C(N)=O)nn1 [Example 13051]",
    "measured": "10 to 99 nM"
  },
  {
    "molecule": "CCCC[C@H]1C(=O)N(C)[C@@H](CCCC)C(=O)N[C@@H](CCC(=O)O)C(=O)N[C@H](C(=O)NCC(=O)N[C@@H](Cc2cn(CC[C@H](NC(=O)CCCCCCCCCCCCCCCCC(=O)O)C(=O)O)nn2)C(=O)O)CSCC(=O)N[C@@H](Cc2ccc(OC)cc2)C(=O)N2CCCC[C@H]2C(=O)N[C@@H](CC(=O)O)C(=O)N2CCC[C@H]2C(=O)N[C@@H](CN)C(=O)N[C@@H](CCC(N)=O)C(=O)N2C[C@H](O)C[C@H]2C(=O)N[C@@H](Cc2c[nH]c3ccccc23)C(=O)N[C@@H](CCN)C(=O)N[C@@H](Cc2cn(CC(=O)O)c3ccccc23)C(=O)N1C [Example 14121]",
    "measured": "10 to 99 nM"
  }
]
